# System: corn (Zea mays)
# method_description: Test A greenhouse herbicide test, pre- and postemergence
# Assay type: in vivo
# applied_conditions: Postemergence, 125 g ai/ha; 0 to 100 scale where 0 is no effect and 100 is complete control
quantity_kind: Plant response rating, Corn

smiles_text: CC(=O)Oc1c(C)nn(C)c(=O)c1-c1c(C)sc2ccc(C(F)(F)F)cc12
observed: 0
--
smiles_text: Cc1nn(C)c(=O)c(-c2ccc(F)c3ccccc23)c1O
observed: 20
--
smiles_text: CCc1nn(C)c(=O)c(-c2c(C)oc3ccc(Cl)cc23)c1O
observed: 0
--
smiles_text: COc1nn(C)c(=O)c(-c2c(C)sc3ccc(Cl)cc23)c1OC(C)=O
observed: 0
--
smiles_text: Cc1ccc2sc(Br)c(-c3c(O)c(C)nn(C)c3=O)c2c1
observed: 0
--
smiles_text: CCCC(=O)Oc1c(C)nn(C)c(=O)c1-c1c(CC)sc2ccc(C)cc12
observed: 0
--
smiles_text: COc1nn(C)c(=O)c(-c2c(C(F)F)ccc3ccccc23)c1O
observed: 0
--
smiles_text: COc1ccc2sc(C)c(-c3c(O)c(C)nn(C)c3=O)c2c1
observed: 0
--
smiles_text: CCOc1ccc2oc(CC)c(-c3c(O)c(C)nn(C)c3=O)c2c1
observed: 0
--
smiles_text: COC(=O)Oc1c(C)nn(C)c(=O)c1-c1ccc(Cl)c2ccccc12
observed: 0
--
smiles_text: CCc1sc2ccc(C)cc2c1-c1c(O)c(C)nn(C)c1=O
observed: 0
--
smiles_text: CCC(=O)Oc1c(C)nn(C)c(=O)c1-c1ccc(F)c2ccccc12
observed: 20
--
smiles_text: CCC(=O)Oc1c(OC)nn(C)c(=O)c1-c1c(C)sc2ccc(Cl)cc12
observed: 0
--
smiles_text: CCc1sc2c(C)cc(C)cc2c1-c1c(O)c(C)nn(C)c1=O
observed: 20
--
smiles_text: Cn1ncc(O)c(-c2cccc3ccccc23)c1=O
observed: 0
--
smiles_text: COC(=O)Oc1c(C)nn(C)c(=O)c1-c1ccc(Br)c2ccccc12
observed: 20

Cited source: patent US10597388B2
